assay: soluble on expression in E. coli; label from the status in PepcDB or PDB records
observable: soluble on expression in E. coli

sequence_record	observable	result
MGCYHPLSGTDGTLMRHTLPIAPQFYVTAPQPCPYLAGRMERKLFTALQGEGAERLNNALSQQGFRRSQNVLYRPSCADCAACLSARIDVSAFRASRSQKRAMRRNAHLTRRATSPWATDEQYELFRRYLDSRHADGGMADMDVFEFAAMIEETPIRSRVIEYAHRDTRALIGVSLTDVLDDGLSMVYSFYDPDLHRDSLGTHMILDHIAIAREAGLPYVYLGYWVPGSPKMGYKSRFSGLEIYLGGRWQAMTDPEAHDAIRHPLSTDPIAEQVANIQLPDRWPTGDLEHHHHHH	soluble on expression in E. coli	not soluble
MRPEERRRHILELLRQRERISVDELARTLSTSQETIRRDLAALAEQGLVSKFHGGAALPPSGEHENAFQTRMNEHAQEKRAVARYAAGLFGPGDSIFIDTGTTTLLFARELARQSHLTVITNSLLIAGSVGASGNRAFMIGGEYRPESEQNVGALAIEQIARFNAEHAVITVGALNGDGAMDFSIEEAEIARAMIAQARQLTVIADSSKLGRRALFQVFPLSRINRLVVDRKPTGELWEALQQARVEVHEAPLRTPQALEHHHHHH	soluble on expression in E. coli	not soluble
